Measured IC50 accompanies every entry in the list below.
# tgt: LK35.2-hPD-L1 cells / PE-labeled PD-1-Ig (Homo sapiens)
# Construct: expressed in transfected cells; host or cells: LK35.2 mouse B cell line
# test-summary: LK35.2-hPD-L1 cell binding high-content screening assay
# Type: cell-based
# measurement-context: cell binding assay, cell line not given; cluster symbol; read-out: CBA IC50 cluster
Positions of bridges follow the written chain, without caps; N, C: chain ends. Non-standard residues stand in square brackets, D forms with d. Residues, ends and D or L forms follow the SMILES beside them. ξ: configuration not given here. Bta = N[C@@H](Cc1csc2ccccc12)C(=O)O; NMeNle = CCCC[C@H](NC)C(=O)O; hSer = N[C@@H](CCO)C(=O)O; NMeA = CN[C@@H](C)C(=O)O; ξC = NC(CS)C(=O)O

CCCC[C@H]1C(=O)N(C)[C@@H](CCCC)C(=O)N[C@@H](CCCNC(=N)N)C(=O)NC(C(=O)NCC(N)=O)CSCC(=O)N[C@@H](Cc2ccc(O)cc2)C(=O)N(C)[C@@H](C)C(=O)N[C@@H](CC(N)=O)C(=O)N2CCC[C@H]2C(=O)N[C@@H](Cc2cnc[nH]2)C(=O)N[C@@H](CC(C)C)C(=O)N2CCC[C@H]2C(=O)N[C@@H](Cc2c[nH]c3ccccc23)C(=O)N[C@@H](CCO)C(=O)N[C@@H](Cc2csc3ccccc23)C(=O)N1C (some centres unmarked) [Example 9052] ({CH2CO}-Y[NMeA]NPHLPW[hSer][Bta][NMeNle][NMeNle]R[ξC]G-NH2; thioether N-14) = 0.158 to 4.71 nM

Now look at this one.
Annotate the compound `CCCC[C@H]1C(=O)N(C)[C@@H](CCCC)C(=O)N[C@@H](CCCNC(=N)N)C(=O)N[C@H](C(=O)NCC(=O)O)CSCC(=O)N[C@@H](Cc2ccc(O)cc2)C(=O)N(C)[C@@H](C)C(=O)N[C@@H](CC(N)=O)C(=O)N2CCC[C@H]2C(=O)N[C@@H](Cc2cnc[nH]2)C(=O)N[C@@H](CC(C)C)C(=O)N2C[C@H](O)C[C@H]2C(=O)N[C@@H](Cc2c[nH]c3ccccc23)C(=O)N[C@@H](CO)C(=O)N[C@@H](Cc2c[nH]c3ccccc23)C(=O)N1C` with its measured IC50.
0.158 to 4.71 nM

* * *

Measured pIC50 accompanies every entry in the list below.
# tgt: LK35.2-hPD-L1 cells / PE-labeled PD-1-Ig (Homo sapiens, UniProt Q9NZQ7)
# Construct: expressed in transfected cells; host or cells: LK35.2 mouse B cell line
# Sequence (Q9NZQ7 19-290): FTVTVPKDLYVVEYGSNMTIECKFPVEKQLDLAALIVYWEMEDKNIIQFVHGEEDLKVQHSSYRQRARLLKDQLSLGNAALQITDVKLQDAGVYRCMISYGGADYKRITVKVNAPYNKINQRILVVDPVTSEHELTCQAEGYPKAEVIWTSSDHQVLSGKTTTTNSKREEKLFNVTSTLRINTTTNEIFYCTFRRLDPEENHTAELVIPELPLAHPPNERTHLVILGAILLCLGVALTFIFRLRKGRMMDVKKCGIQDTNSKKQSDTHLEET
# test-summary: LK35.2-hPD-L1 cell binding high-content screening assay
# Format: cell-based
# measurement-context: cell binding assay, cell line not given; cluster symbol; read-out: CBA IC50 cluster
pIC50: −log10 of the molar value. Positions of bridges follow the written chain, without caps; N, C: chain ends. Non-standard residues stand in square brackets, D forms with d. Residues, ends and D or L forms follow the SMILES beside them. Hyp = O=C(O)[C@@H]1C[C@@H](O)CN1; NMeNle = CCCC[C@H](NC)C(=O)O; NMeA = CN[C@@H](C)C(=O)O; Sar = CNCC(=O)O

CCCC[C@H]1C(=O)N(C)[C@@H](CCCC)C(=O)N[C@@H](CCCCN)C(=O)N[C@H](C(=O)NCC(N)=O)CSCC(=O)N[C@@H](Cc2ccc(O)cc2)C(=O)N(C)[C@@H](C)C(=O)N[C@@H](CC(N)=O)C(=O)N2CCC[C@H]2C(=O)N[C@@H](Cc2c[nH]cn2)C(=O)N[C@@H](CCC(=O)O)C(=O)N2C[C@H](O)C[C@H]2C(=O)N[C@@H](Cc2c[nH]c3ccccc23)C(=O)N[C@@H](CO)C(=O)N[C@@H](Cc2c[nH]c3ccccc23)C(=O)N1C [Example 5139] ({CH2CO}-Y[NMeA]NPHE[Hyp]WSW[NMeNle][NMeNle]KCG-NH2; thioether N-14) = 8.33 to 9.80

Annotate the compound CCCC[C@H]1C(=O)N(C)[C@@H](CCCC)C(=O)N[C@@H]([C@@H](C)CC)C(=O)N[C@H](C(=O)NCC(N)=O)CSCC(=O)N[C@@H](Cc2ccccc2)C(=O)N(C)[C@@H](C)C(=O)N[C@@H](CC(N)=O)C(=O)N2CCC[C@H]2C(=O)N[C@@H](Cc2cnc[nH]2)C(=O)N[C@@H](CC(C)C)C(=O)N(C)CC(=O)N[C@@H](Cc2c[nH]c3ccccc23)C(=O)N[C@@H](CO)C(=O)N[C@@H](Cc2c[nH]c3ccccc23)C(=O)N1C [Example 5018] ({CH2CO}-F[NMeA]NPHL[Sar]WSW[NMeNle][NMeNle]ICG-NH2; thioether N-14) with its measured pIC50.
7.14 to 8.32

* * *

# tgt: Human PD-L1/PD-1 (Homo sapiens)
# Construct: made in house; host or cells: HEK293T
# Sequence (Q9NZQ7 with tags, fused parts or gaps): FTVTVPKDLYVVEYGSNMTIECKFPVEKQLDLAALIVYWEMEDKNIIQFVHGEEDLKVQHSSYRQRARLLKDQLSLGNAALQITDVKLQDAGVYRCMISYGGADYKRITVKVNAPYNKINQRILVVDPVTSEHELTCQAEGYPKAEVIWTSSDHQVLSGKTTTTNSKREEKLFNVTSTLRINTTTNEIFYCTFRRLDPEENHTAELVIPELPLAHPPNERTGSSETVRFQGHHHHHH
# test-summary: HTRF PD-1-Ig/PD-L1-His binding assay (human PD-L1)
# measurement-context: cluster symbol; read-out: HTRF IC50 cluster
Positions of bridges follow the written chain, without caps; N, C: chain ends. Non-standard residues stand in square brackets, D forms with d. Residues, ends and D or L forms follow the SMILES beside them. Phe(4-CH2NH2) = NCc1ccc(C[C@H](N)C(=O)O)cc1; Phe(3-F) = N[C@@H](Cc1cccc(F)c1)C(=O)O; NMeF = CN[C@@H](Cc1ccccc1)C(=O)O; NMeNle = CCCC[C@H](NC)C(=O)O; Sar = CNCC(=O)O
value-type: IC50

CCCC[C@H]1C(=O)N(C)CC(=O)N[C@@H](CC(=O)O)C(=O)N[C@@H](C(C)C)C(=O)N(C)[C@@H](Cc2ccccc2)C(=O)N[C@@H](Cc2ccc(CN)cc2)C(=O)N(C)CC(=O)N[C@@H](Cc2c[nH]c3ccccc23)C(=O)N[C@@H](Cc2ccc(O)cc2)C(=O)N[C@@H](CC(C)C)C(=O)N[C@H](C(=O)NCC(N)=O)CSCC(=O)N[C@@H](Cc2cccc(F)c2)C(=O)N(C)[C@@H](Cc2ccccc2)C(=O)N1C [Example 3124] ({CH2CO}-[Phe(3-F)][NMeF][NMeNle][Sar]DV[NMeF][Phe(4-CH2NH2)][Sar]WYLCG-NH2; thioether N-13) = 6.76 to 30.3 nM

Now look at this one.
Annotate the compound CCCC[C@H]1C(=O)N(C)CC(=O)N[C@@H](CC(=O)O)C(=O)N[C@@H](C(C)C)C(=O)N(C)[C@@H](Cc2ccccc2)C(=O)N[C@@H](Cc2ccc(O)cc2)C(=O)N(C)CC(=O)N[C@@H](Cc2c[nH]c3ccccc23)C(=O)N[C@@H](Cc2ccc(CN)cc2)C(=O)N[C@@H](CC(C)C)C(=O)N[C@H](C(=O)NCC(N)=O)CSCC(=O)N[C@@H](Cc2ccccc2)C(=O)N(C)[C@@H](Cc2ccccc2)C(=O)N1C [Example 3514] ({CH2CO}-F[NMeF][NMeNle][Sar]DV[NMeF]Y[Sar]W[Phe(4-CH2NH2)]LCG-NH2; thioether N-13) with its measured IC50.
6.76 to 30.3 nM

* * *

# tgt: LK35.2-hPD-L1 cells / PE-labeled PD-1-Ig (Homo sapiens, UniProt Q9NZQ7)
# Construct: expressed in transfected cells; host or cells: LK35.2 mouse B cell line
# test-summary: LK35.2-hPD-L1 cell binding high-content screening assay
# Assay type: cell-based
# measurement-context: cluster symbol; cell line of CBA not given (LK35.2-hPD-L1 or 293T-hPD-L1); read-out: CBA IC50 cluster
pIC50: −log10 of the molar value. Positions of bridges follow the written chain, without caps; N, C: chain ends. Non-standard residues stand in square brackets, D forms with d. Residues, ends and D or L forms follow the SMILES beside them. Phe(F5) = N[C@@H](Cc1c(F)c(F)c(F)c(F)c1F)C(=O)O; Phe(3,4-F2) = N[C@@H](Cc1ccc(F)c(F)c1)C(=O)O; Tyr(3-I) = N[C@@H](Cc1ccc(O)c(I)c1)C(=O)O; Bta = N[C@@H](Cc1csc2ccccc12)C(=O)O; cisHyp = O=C(O)[C@@H]1C[C@H](O)CN1; NMeF = CN[C@@H](Cc1ccccc1)C(=O)O; NMeE = CN[C@@H](CCC(=O)O)C(=O)O; NMeNle = CCCC[C@H](NC)C(=O)O; NMeA = CN[C@@H](C)C(=O)O; Orn = NCCC[C@H](N)C(=O)O; Dap = NC[C@H](N)C(=O)O; Sar = CNCC(=O)O
Measured pIC50 accompanies every entry in the list below.

C=CCCCC[C@H]1C(=O)N(C)[C@@H](CCCCC=C)C(=O)N[C@@H](CCCNC(=N)N)C(=O)N[C@H](C(=O)NCC(N)=O)CSCC(=O)N[C@@H](Cc2ccccc2)C(=O)N(C)[C@@H](C)C(=O)N[C@@H](CC(N)=O)C(=O)N2CCC[C@H]2C(=O)N[C@@H](Cc2cnc[nH]2)C(=O)N[C@@H](CC(C)C)C(=O)N(C)CC(=O)N[C@@H](Cc2c[nH]c3ccccc23)C(=O)N[C@@H](CO)C(=O)N[C@@H](Cc2c[nH]c3ccccc23)C(=O)N1C = 7.14 to 8.32

Annotate the compound CCCC[C@H]1C(=O)N(C)CC(=O)N[C@@H](CC(=O)O)C(=O)N[C@@H](C(C)C)C(=O)N(C)[C@@H](Cc2ccccc2)C(=O)N[C@@H](Cc2c(F)c(F)c(F)c(F)c2F)C(=O)N(C)CC(=O)N[C@@H](Cc2c[nH]c3ccccc23)C(=O)N[C@@H](Cc2ccc(O)cc2)C(=O)N[C@@H](CC(C)C)C(=O)N[C@H](C(=O)NCC(N)=O)CSCC(=O)N[C@@H](Cc2ccccc2)C(=O)N(C)[C@@H](Cc2ccccc2)C(=O)N1C [Example 3079] ({CH2CO}-F[NMeF][NMeNle][Sar]DV[NMeF][Phe(F5)][Sar]WYLCG-NH2; thioether N-13) with its measured pIC50.
7.14 to 8.32

Annotate the compound CCCC[C@H]1C(=O)N(C)[C@@H](CCCC)C(=O)N[C@@H](CCCN)C(=O)N[C@H](C(=O)NCC(N)=O)CSCC(=O)N[C@@H](Cc2ccc(O)cc2)C(=O)N2CCC[C@H]2C(=O)N[C@@H](CC(=O)O)C(=O)N2CCC[C@H]2C(=O)N[C@@H](CN)C(=O)N[C@@H](CC(C)C)C(=O)N2C[C@@H](O)C[C@H]2C(=O)N[C@@H](Cc2c[nH]c3ccccc23)C(=O)N[C@@H](CO)C(=O)N[C@@H](Cc2c[nH]c3ccccc23)C(=O)N1C [Example 1149] ({CH2CO}-YPDP[Dap]L[cisHyp]WSW[NMeNle][NMeNle][Orn]CG-NH2; thioether N-14) with its measured pIC50.
7.14 to 8.32

Annotate the compound `CCCC[C@H]1C(=O)N(C)[C@@H](CCCC)C(=O)N[C@@H](CCCN)C(=O)N[C@H](C(=O)NCC(N)=O)CSCC(=O)N[C@@H](Cc2ccc(O)cc2)C(=O)N2CCCC[C@H]2C(=O)N[C@@H](CC(N)=O)C(=O)N2CCC[C@H]2C(=O)N[C@@H](Cc2cnc[nH]2)C(=O)N[C@@H](CC(C)C)C(=O)N2C[C@H](O)C[C@H]2C(=O)N[C@@H](Cc2c[nH]c3ccccc23)C(=O)N[C@@H](CO)C(=O)N[C@@H](Cc2c[nH]c3ccccc23)C(=O)N1C` with its measured pIC50.
8.33 to 9.80

Annotate the compound CCCC[C@H]1C(=O)N(C)[C@@H](CCCC)C(=O)N[C@@H](CCCNC(=N)N)C(=O)N[C@H](C(=O)NCC(N)=O)CSCC(=O)N[C@@H](Cc2ccc(O)cc2)C(=O)N(C)[C@@H](CCC(=O)O)C(=O)N[C@@H](CC(N)=O)C(=O)N2CCC[C@H]2C(=O)N[C@@H](Cc2cnc[nH]2)C(=O)N[C@@H](CC(C)C)C(=O)N2CCC[C@H]2C(=O)N[C@@H](Cc2c[nH]c3ccccc23)C(=O)N[C@@H](CO)C(=O)N[C@@H](Cc2csc3ccccc23)C(=O)N1C [Example 1191] ({CH2CO}-Y[NMeE]NPHLPWS[Bta][NMeNle][NMeNle]RCG-NH2; thioether N-14) with its measured pIC50.
< 7.13

Annotate the compound CCCC[C@H]1C(=O)N(C)CC(=O)N[C@@H](CC(=O)O)C(=O)N[C@@H](C(C)C)C(=O)N(C)[C@@H](Cc2ccccc2)C(=O)N[C@@H](Cc2ccc(O)cc2)C(=O)N(C)CC(=O)N[C@@H](Cc2c[nH]c3ccccc23)C(=O)N[C@@H](Cc2ccc(O)cc2)C(=O)N[C@@H](CC(C)C)C(=O)N[C@H](C(=O)NCC(N)=O)CSCC(=O)N[C@@H](Cc2ccc(F)c(F)c2)C(=O)N(C)[C@@H](Cc2ccccc2)C(=O)N1C [Example 3130] ({CH2CO}-[Phe(3,4-F2)][NMeF][NMeNle][Sar]DV[NMeF]Y[Sar]WYLCG-NH2; thioether N-13) with its measured pIC50.
8.33 to 9.80

Annotate the compound CCCC[C@H]1C(=O)N(C)CC(=O)N[C@@H](CC(=O)O)C(=O)N[C@@H](C(C)C)C(=O)N(C)[C@@H](Cc2ccccc2)C(=O)N[C@@H](Cc2ccc(O)c(I)c2)C(=O)N(C)CC(=O)N[C@@H](Cc2c[nH]c3ccccc23)C(=O)N[C@@H](Cc2ccc(O)cc2)C(=O)N[C@@H](CC(C)C)C(=O)N[C@H](C(=O)NCC(N)=O)CSCC(=O)N[C@@H](Cc2ccccc2)C(=O)N(C)[C@@H](Cc2ccccc2)C(=O)N1C [Example 3111] ({CH2CO}-F[NMeF][NMeNle][Sar]DV[NMeF][Tyr(3-I)][Sar]WYLCG-NH2; thioether N-13) with its measured pIC50.
7.14 to 8.32

Annotate the compound CCCC[C@H]1C(=O)N(C)[C@@H](CCCC)C(=O)N[C@@H](CCCN)C(=O)N[C@H](C(=O)NCC(N)=O)CSCC(=O)N[C@@H](Cc2ccc(O)cc2)C(=O)N(C)[C@@H](C)C(=O)N[C@@H](CC(N)=O)C(=O)N2CCC[C@H]2C(=O)N[C@@H](CN)C(=O)N[C@@H](CC(C)C)C(=O)N2C[C@@H](O)C[C@H]2C(=O)N[C@@H](Cc2c[nH]c3ccccc23)C(=O)N[C@@H](CO)C(=O)N[C@@H](Cc2c[nH]c3ccccc23)C(=O)N1C [Example 1145] ({CH2CO}-Y[NMeA]NP[Dap]L[cisHyp]WSW[NMeNle][NMeNle][Orn]CG-NH2; thioether N-14) with its measured pIC50.
8.33 to 9.80
